Taken from paper PMC5286426.

# system-name: Ca^2+-bound EF (EF domain of LPL) (Homo sapiens)
# Construct: His-tag (with TEV protease cleavage site) (N, cleaved yes); made in house; host or cells: E. coli BL21 (DE3)
# Sequence (P13796 1-82 limits assumed): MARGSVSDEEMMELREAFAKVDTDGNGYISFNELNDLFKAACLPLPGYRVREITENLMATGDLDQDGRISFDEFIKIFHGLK
# experimental-protocol: Surface plasmon resonance (SPR), peptides binding to immobilized EF
# condition-parameters: Ca^2+-bound EF; SPR, pH 7.5, 25 °C; read-out: Kd of H5 peptide for Ca^2+-bound EF (order of magnitude, discussion)
pKd: −log10 of the molar value.
property-name: pKd

substance="Ac-STDVAKTFRKAINKKEGI-NH2 [H5p]" measurement=6.00
